# Tested System: trypsin-like enzyme (Homo sapiens, UniProt O60235)
# Construct: from tissue; host or cells: cough phlegm (sputum) of patients with chronic disease of the respiratory tract
# Sequence (O60235 187-418): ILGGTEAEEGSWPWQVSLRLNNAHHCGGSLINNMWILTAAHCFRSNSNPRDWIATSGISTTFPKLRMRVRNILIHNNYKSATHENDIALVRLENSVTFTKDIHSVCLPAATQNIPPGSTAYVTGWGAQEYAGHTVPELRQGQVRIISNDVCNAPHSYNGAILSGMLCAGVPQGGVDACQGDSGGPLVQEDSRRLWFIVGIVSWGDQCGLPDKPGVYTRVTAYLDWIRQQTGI
# Experimental Protocol: Substrate specificity, synthetic MCA substrates (assay method of trypsin activity)
# Format: biochemical
# Experimental Setup: pH 8.6, 0.1M Tris-HCl; activity on Boc-Phe-Ser-Arg-MCA taken to be 100%
*1 amine or outer side, *2 acyl side, *3 side chain or, on linkers, in order; H or OH if unused. Where a SMILES comes first, the peptide text is derived from it. The star is where a group is joined. AMC = Cc1cc(=O)oc2cc(N*)ccc12; Suc = O=C(CCC(=O)[*:2])[*:1]; Boc = CC(C)(C)OC(=O)*
Threshold check on Substrate digestion ratio (%) Trypsin-like enzyme pH 8.6: strictly below 10% is criterion met; on or above 10% is criterion not met.

See these solved cases before continuing.
Query: Dear reviewer, please state whether Cc1cc(=O)oc2cc(NC(=O)[C@H](CCCNC(=N)N)NC(=O)CNC(=O)[C@H](CCC(N)=O)NC(=O)OC(C)(C)C)ccc12 [Boc-Gln-Gly-Arg-MCA] (Boc-Gln-Gly-Arg-{AMC}) has Substrate digestion ratio (%) Trypsin-like enzyme pH 8.6 strictly beneath 10%.
Response: criterion not met

Query: Dear reviewer, please state whether Cc1cc(=O)oc2cc(NC(=O)[C@H](CCCCN)NC(=O)[C@H](CC(C)C)NC(=O)[C@@H](NC(=O)OC(C)(C)C)C(C)C)ccc12 [Boc-Val-Leu-Lys-MCA] (Boc-Val-Leu-Lys-{AMC}) has Substrate digestion ratio (%) Trypsin-like enzyme pH 8.6 strictly beneath 10%.
Response: criterion met

Others:
Query: Dear reviewer, please state whether Cc1cc(=O)oc2cc(NC(=O)[C@H](Cc3ccccc3)NC(=O)[C@@H]3CCCN3C(=O)[C@H](C)NC(=O)[C@H](C)NC(=O)CCC(=O)O)ccc12 [Suc-Ala-Ala-Pro-Phe-MCA] (Suc-AAPF-{AMC}) has Substrate digestion ratio (%) Trypsin-like enzyme pH 8.6 strictly beneath 10%.
Response: criterion met

Query: Dear reviewer, please state whether CC[C@H](C)[C@H](NC(=O)OC(C)(C)C)C(=O)N[C@@H](CCC(N)=O)C(=O)NCC(=O)N[C@@H](CCCNC(=N)N)C(=O)Nc1ccc2c(C)cc(=O)oc2c1 [Boc-Ile-Gln-Gly-Arg-MCA] (Boc-IQGR-{AMC}) has Substrate digestion ratio (%) Trypsin-like enzyme pH 8.6 strictly beneath 10%.
Response: criterion not met

Query: Dear reviewer, please state whether Cc1cc(=O)oc2cc(NC(=O)[C@H](CCCNC(=N)N)NC(=O)[C@H](CO)NC(=O)[C@H](Cc3ccccc3)NC(=O)OC(C)(C)C)ccc12 [Boc-Phe-Ser-Arg-MCA] (Boc-Phe-Ser-Arg-{AMC}) has Substrate digestion ratio (%) Trypsin-like enzyme pH 8.6 strictly beneath 10%.
Response: criterion not met

Query: Dear reviewer, please state whether Cc1cc(=O)oc2cc(NC(=O)[C@H](CCCNC(=N)N)NC(=O)[C@@H]3CCCN3C(=O)[C@@H](NC(=O)OC(C)(C)C)C(C)C)ccc12 [Boc-Val-Pro-Arg-MCA] (Boc-Val-Pro-Arg-{AMC}) has Substrate digestion ratio (%) Trypsin-like enzyme pH 8.6 strictly beneath 10%.
Response: criterion not met

Query: Dear reviewer, please state whether Cc1cc(=O)oc2cc(NC(=O)[C@@H]3CCCN3C(=O)CNC(=O)[C@H](CC(C)C)NC(=O)[C@@H]3CCCN3C(=O)CNC(=O)CCC(=O)O)ccc12 [Suc-Gly-Pro-Leu-Gly-Pro-MCA] (Suc-GPLGP-{AMC}) has Substrate digestion ratio (%) Trypsin-like enzyme pH 8.6 strictly beneath 10%.
Response: criterion met
